# Test system: P. aeruginosa BA
# Test method notes: Minimum inhibitory concentration in vitro, agar dilution method
# Format: cell-based
# Experimental setup: Pseudomonas aeruginosa; P. aeruginosa BA, agar dilution; read-out: MIC
Structures can show the parent of a compound that is named as a salt.
Attribute measured: MIC

Worked examples, 5 compounds total:
Compound	MIC
Cc1cc(SCC2=C(C(=O)O)N3C(=O)[C@@H](NC(=O)/C(=N\OCc4ccc(O)c(O)c4F)c4csc(N)n4)[C@H]3SC2)n2nc(COC(=O)c3ccc(O)c(O)c3)nc2n1 [Example 9]	< 0.1 µg/mL
Cc1cc(SCC2=C(C(=O)O)N3C(=O)[C@@H](NC(=O)/C(=N\OCc4ccc(O)c(O)c4)c4csc(N)n4)[C@H]3SC2)n2nc(CNS(=O)(=O)c3ccc(O)c(O)c3)nc2n1 [Example 4]	< 0.1 µg/mL
Cc1cc(SCC2=C(C(=O)O)N3C(=O)[C@@H](NC(=O)/C(=N\OC(C)(C)C(=O)NNC(=O)c4ccc(O)c(O)c4)c4csc(N)n4)[C@H]3SC2)n2nc(CS(=O)(=O)c3ccc(O)c(O)c3)nc2n1 [Example 44]	< 0.1 µg/mL
Cc1cc(SCC2=C(C(=O)O)N3C(=O)[C@@H](NC(=O)/C(=N\OC(C)(C)C(=O)NNC(=O)c4ccc(O)c(O)c4)c4csc(N)n4)[C@H]3SC2)n2nc(COC(=O)c3ccc(O)c(O)c3)nc2n1 [Example 43]	< 0.1 µg/mL
Cc1cc(SCC2=C(C(=O)O)N3C(=O)[C@@H](NC(=O)/C(=N\OCc4nc(=O)c(O)c[nH]4)c4csc(N)n4)[C@H]3SC2)n2nc(CNS(=O)(=O)c3ccc(O)c(O)c3)nc2n1 [Example 2]	< 0.1 µg/mL

Can you look up the measured MIC of Nc1nc(/C(=N/OCS(=O)(=O)c2ccc(O)c(O)c2)C(=O)N[C@@H]2C(=O)N3C(C(=O)O)=C(CS(=O)(=O)c4ccc(O)c(O)c4)CS[C@H]23)cs1 [Example 22, sodium salt] for me?
> 32 µg/mL

###

# maps each entry to its ED50
# System: Pseudomonas aeruginosa BA
# Test method notes: Experimental systemic septicaemia in the mouse
# Assay type: in vivo
# Experimental setup: sc, 96 h, P. aeruginosa BA, albino mice, s.c. 1, 3 and 5 hours after infection, survival after 4 days, read-out: ED50

Some entries whose results are on file:
Compound	Measured
Cc1ncc(-c2ccc(O)c(O)c2)c(SCC2=C(C(=O)O)N3C(=O)[C@@H](NC(=O)/C(=N\OC(C)(C)C(=O)NO)c4csc(N)n4)[C@H]3SC2)n1 [Example 19b]	> 3 mg/kg
Nc1nc(/C(=N/OCc2nc(=O)c(O)c[nH]2)C(=O)N[C@@H]2C(=O)N3C(C(=O)O)=C(CSc4nc(-c5ccccc5)ncc4-c4ccc(O)c(O)c4)CS[C@H]23)cs1 [Example 16]	> 2 mg/kg

Now look at this one.
Quick one: ED50 of Nc1nc(/C(=N/OCc2ccc(O)c(O)c2F)C(=O)N[C@@H]2C(=O)N3C(C(=O)O)=C(CSc4nc(-c5ccccc5)ncc4-c4ccc(O)c(O)c4)CS[C@H]23)cs1 [Example 15] ?
> 2 mg/kg

###

# Tested on: K. pneumoniae 418
# Test method notes: Minimum inhibitory concentration in vitro, agar dilution method
# Assay type: cell-based
# Experimental setup: Klebsiella pneumoniae; K. pneumoniae 418, agar dilution; read-out: MIC
Attribute measured: MIC

Molecule	MIC
Cc1cc(SCC2=C(C(=O)O)N3C(=O)[C@@H](NC(=O)/C(=N\OCc4nc(=O)c(O)c[nH]4)c4csc(N)n4)[C@H]3SC2)n2nc(CNS(=O)(=O)c3ccc(O)c(O)c3)nc2n1 [Example 2]	< 0.25 mg/L
Cc1cc(SCC2=C(C(=O)O)N3C(=O)[C@@H](NC(=O)/C(=N\OCc4ccc(O)c(O)c4F)c4csc(N)n4)[C@H]3SC2)n2nc(CNS(=O)(=O)c3ccc(O)c(O)c3)nc2n1 [Example 5]	< 0.1 mg/L
Cc1cc(SCC2=C(C(=O)O)N3C(=O)[C@@H](NC(=O)/C(=N\OC(C)(C)C(=O)NNC(=O)c4ccc(O)c(O)c4)c4csc(N)n4)[C@H]3SC2)n2nc(COC(=O)c3ccc(O)c(O)c3)nc2n1 [Example 43]	< 0.1 mg/L

Please report the recorded MIC for Cc1cc(SCC2=C(C(=O)O)N3C(=O)[C@@H](NC(=O)/C(=N\OCc4ccc(O)c(O)c4)c4csc(N)n4)[C@H]3SC2)n2nc(CNS(=O)(=O)c3ccc(O)c(O)c3)nc2n1 [Example 4] .
< 0.1 mg/L

Entry CC(C)(O/N=C(\C(=O)N[C@@H]1C(=O)N2C(C(=O)O)=C(CSc3ncncc3-c3ccc(O)c(O)c3)CS[C@H]12)c1csc(N)n1)C(=O)NO [Example 19a] : reported MIC = ?
< 0.1 mg/L

Give its MIC value. Item: Cc1ncc(-c2ccc(O)c(O)c2)c(SCC2=C(C(=O)O)N3C(=O)[C@@H](NC(=O)/C(=N\OC(C)(C)C(=O)NO)c4csc(N)n4)[C@H]3SC2)n1 [Example 19b]
< 0.1 mg/L

###

# Tested on: P. aeruginosa MK1184
# Test method notes: Minimum inhibitory concentration in vitro, agar dilution method
# Type: cell-based
# Experimental setup: Pseudomonas aeruginosa; P. aeruginosa MK1184, agar dilution; read-out: MIC
Catalogue of molecules with associated MIC

1. Cc1cc(SCC2=C(C(=O)O)N3C(=O)[C@@H](NC(=O)/C(=N\OCc4ccc(O)c(O)c4F)c4csc(N)n4)[C@H]3SC2)n2nc(CNS(=O)(=O)c3ccc(O)c(O)c3)nc2n1 < 0.1 µg/mL
2. Cc1cc(SCC2=C(C(=O)O)N3C(=O)[C@@H](NC(=O)/C(=N\OC(C)(C)C(=O)NNC(=O)c4ccc(O)c(O)c4)c4csc(N)n4)[C@H]3SC2)n2nc(COC(=O)c3ccc(O)c(O)c3)nc2n1 < 0.1 µg/mL

// below: MIC requested for another molecule
Which MIC value is on record for `CC(C)(O/N=C(\C(=O)N[C@@H]1C(=O)N2C(C(=O)O)=C(CS(=O)(=O)c3ccc(O)c(O)c3)CS[C@H]12)c1csc(N)n1)C(=O)NO` ?
> 32 µg/mL

###

# Tested on: P. aeruginosa 27853
# Test method notes: Minimum inhibitory concentration in vitro, agar dilution method
# Assay type: cell-based
# Experimental setup: Pseudomonas aeruginosa, 27853
Overview of recorded MIC for various compounds

1. Cc1cc(SCC2=C(C(=O)[O-])N3C(=O)[C@@H](NC(=O)/C(=N\OCc4ccc(O)c(O)c4F)c4csc(N)n4)[C@H]3SC2)n2nc(CS(=O)(=O)c3ccc(O)c(O)c3)nc2n1.[Na+] < 0.1 µg/mL
2. Cc1cc(SCC2=C(C(=O)[O-])N3C(=O)[C@@H](NC(=O)/C(=N\OCc4nc(=O)c(O)c[nH]4)c4csc(N)n4)[C@H]3SC2)n2nc(COC(=O)c3ccc(O)c(O)c3)nc2n1.[Na+] < 0.1 µg/mL

From here, focus on the item given below.
// fetch P. aeruginosa 27853 MIC for `Cc1cc(SCC2=C(C(=O)[O-])N3C(=O)[C@@H](NC(=O)/C(=N\OCc4ccc(O)c(O)c4)c4csc(N)n4)[C@H]3SC2)n2nc(CS(=O)(=O)c3ccc(O)c(O)c3)nc2n1.[Na+]`
< 0.1 µg/mL
